Reported values of Ki for individual entries
# TEST_TARGET: human histamine H4 receptor (Homo sapiens, UniProt Q9H3N8)
# Construct: purchased PerkinElmer Inc; host or cells: CHO-K1
# Sequence (Q9H3N8 whole entry): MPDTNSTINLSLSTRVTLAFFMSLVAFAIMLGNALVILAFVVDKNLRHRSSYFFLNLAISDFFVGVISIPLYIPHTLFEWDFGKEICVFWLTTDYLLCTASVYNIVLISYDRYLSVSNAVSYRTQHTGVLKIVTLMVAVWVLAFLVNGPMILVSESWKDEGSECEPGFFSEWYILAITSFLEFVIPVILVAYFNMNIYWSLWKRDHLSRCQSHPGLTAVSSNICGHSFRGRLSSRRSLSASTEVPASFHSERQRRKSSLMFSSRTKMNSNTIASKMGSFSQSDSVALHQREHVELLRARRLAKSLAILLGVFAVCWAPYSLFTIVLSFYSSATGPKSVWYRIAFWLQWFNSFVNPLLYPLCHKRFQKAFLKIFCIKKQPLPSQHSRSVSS
# TEST_SUMMARY: Evaluation of Human H4 Receptor Affinity ([3H]histamine binding)
# TEST_SETTINGS: inhibition constant Ki, CHO-K1 membrane preparation, read-out: Evaluation of H4 Receptor Affinity
Structures can show the parent of a compound that is named as a salt.

// solved cases for Ki follow
COMPOUND	TEST_TARGET	REPORTED_MEASUREMENT
C[C@]1(C(=O)O)C[C@H](OCCN2CCN(c3nc(N)nc4c3CCc3cc(OCc5ccc(OC(F)(F)F)cc5)ccc3-4)CC2)C1	human histamine H4 receptor (Homo sapiens, UniProt Q9H3N8)	< 100 nM
Nc1nc2c(c(N3CCN(CCOc4ccc(C(=O)O)cc4)CC3)n1)CCc1cc(OCc3ccc(Cl)cc3)ccc1-2	human histamine H4 receptor (Homo sapiens, UniProt Q9H3N8)	< 100 nM
Nc1nc2c(c(N3CCN(CCOCC4CCCC(C(=O)O)C4)CC3)n1)CCc1cc(OCc3ccc(OC(F)(F)F)cc3)ccc1-2 (stereo not shown) [Example 185, dihydrochloride]	human histamine H4 receptor (Homo sapiens, UniProt Q9H3N8)	< 100 nM
CN1CCN(c2nc(N)nc3c2CCc2cc(NS(=O)(=O)CCc4ccccc4)ccc2-3)CC1	human histamine H4 receptor (Homo sapiens, UniProt Q9H3N8)	< 100 nM
N#CC1(C(=O)O)CCC(COCCN2CCN(c3nc(N)nc4c3CCc3cc(OCc5ccc(Cl)cc5)ccc3-4)CC2)CC1 (stereo not shown) [160(b)]	human histamine H4 receptor (Homo sapiens, UniProt Q9H3N8)	< 100 nM

[Q] Dear colleague, please send me the reported Ki for `COC(=O)COCCN1CCN(c2nc(N)nc3c2CCc2cc(OCc4ccc(Cl)cc4)ccc2-3)CC1` when you can.
[A] < 100 nM

[Q] Dear colleague, please send me the reported Ki for `Nc1nc2c(c(N3CCN(CCOCCOCCO)CC3)n1)CCc1cc(OCc3ccc(Cl)cc3)ccc1-2` when you can.
[A] < 100 nM

====

# TEST_TARGET: human histamine H4 receptor (Homo sapiens)
# Construct: purchased PerkinElmer Inc; host or cells: CHO-K1
# TEST_SUMMARY: Evaluation of Human H4 Receptor Affinity ([3H]histamine binding)
# TEST_SETTINGS: inhibition constant Ki, CHO-K1 membrane preparation, read-out: Evaluation of H4 Receptor Affinity
# Excerpt: Test Example 2: Evaluation of Human H4 Receptor Affinity […]
pKi: −log10 of the molar value.
Reported values of pKi for individual entries

> print(dat)
                            chemical.smiles  reported.measurement
1  Nc1nc2c(c(N3CCN(CCO[C@H]4C[C@@H](CC(=O)O)C4)CC3)n1)CCc1cc(OCc3ccc(OC(F)(F)F)cc3)ccc1-2                > 7.00
2  COc1cc(OC(F)(F)F)ccc1COc1ccc2c(c1)CCc1c-2nc(N)nc1N1CCN(CCO[C@H]2C[C@@H](C(=O)O)C2)CC1                > 7.00

Read the next record carefully.
[Q] Tell me its pKi on human histamine H4 receptor (Homo sapiens): `Nc1nc2c(c(N3CCN(CCO[C@H]4C[C@@H](C(=O)O)C4)CC3)n1)CCc1cc(OCc3ccc(OC(F)F)cc3)ccc1-2`
[A] > 7.00
